Form field: ratio OD on target/OD bdf (one value per entry).
Molecular target: T1, recombinant human MOG protein (human, UniProt Q16653 30-154, limits assumed)
T1 construct: Bought recombinant protein; also called HMOG
T1 sequence (looked up): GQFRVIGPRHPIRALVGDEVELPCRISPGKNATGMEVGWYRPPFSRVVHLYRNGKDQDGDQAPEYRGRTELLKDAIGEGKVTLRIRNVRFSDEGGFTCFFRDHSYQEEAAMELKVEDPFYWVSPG
Assay: phage-scFv ELISA on coated recombinant human MOG (0.5 µg/well), anti-M13 HRP, OD450 over BSA background
Experimental: The binding characteristics of the scFvs expressed on the surface of the phages isolated during the screening were determined using an ELISA assay using the recombinant MOG protein (R&D system). […] After incubation for 2 hours at 37° C., the wells were washed 3 times with PBS/0.1% Tween-20 and bound phages-scfv were detected with anti-M13 HRP antibody (GE Healthcare). The plate is read at 450 nm (OD) on a plate reader (TECAN). […]
Entry rule: numbers only, all in ratio.

Sample records with ratio OD on target/OD bdf:
BINDER	ratio OD on target/OD bdf / ratio
anti-MOG MO3I-33 antibody (scFv, V domains shown) VH: DQVQLVQSGAEVKPGATVKISCKVSGYTFTDYYMHWVQQAPGKGLEWMGLVDPEDGETIYAEKFQGRVTITADTSTDTAYMELSSLRSEDTAVYYCATSYHGTSGFDYWGQGTLVTVSS VL: QSVVTQPPSVSGAPGQRVTIACTGSNSDIGAGHDVHWYQQFPRTAPKLIIFGNTNRPSGVPDRFSGSKSGTSASLVITGLQADDEADYHCQSYDNNLSGPIFGGGTKLTVL	2.53
anti-MOG MO3J-52 antibody (scFv, V domains shown) VH: QMQLVQSGAEVKKPGSSVKVSCKASGGTFSSYAISWVRQAPGQGLEWMGGIIPIFGTANYAQKFQGRVTITADESTSTAYMELSSLRSEDTAVYYCARAREGLLVNYYGMDVWGQGTLVTVSS VL: DIQMTQSPSTLSASVGDRVTTTCRASQGISNYLAWFQQKPGKAPKSLIYAASSLQSGVPSRFSGGGSGTDFTLTINSLQPEDFATYYCLHDYNYPTFGQGTKVEIK	16.3
anti-MOG MO4H-55 antibody (scFv, V domains shown) VH: QVQLQQSGPGLVKPSQTLSLTCAISGDSVSSNSAAWNWIRQSPSRGLEWLGRTYYRSKWYNDYAESVKSRMTVTSDTSKNQVSLHLNSVTPEDTAVYYCAREHIAVPGVFDIWGQGTLVTVSS VL: DVVMTQPPSASGTPGQGVTISCSGSSSNIGSNTVNWYQQLPGTAPKLLIYGSGQRPSGVPDRFSGSRSGTSASLAISGLQSEDEADYYCAAWDDSLNGRVFGQGTKVDIT	2.99
anti-MOG MO3I-69 antibody (scFv, V domains shown) VH: DQVQLVQSGAEVKPGASVKVSCKASGYTFTYYYLHWVRQAPGQGLEWMGWINPNSGATIFAQKFQGRVTLTRDTSISTAYLDLSRLRSDDTAVYYCARASMAYQYHSDVDYWGLGTLVTVSS VL: QSVLTQPPSVSGAPGQRVTISCTGSSSNIGAGYDVHWYQQLPGTAPKLLIYGNSNRPSGVPDRFSGSKSGTSASLAITGLQAEDEADYYCQSYDSSLVVFGGGTKLTVL	2.26

Consider now this further binder.
Q. State its ratio OD on target/OD bdf for this binder: anti-MOG MO3I-30 antibody (scFv, V domains shown) VH: EVQLLESGGGLVQPGGSLRLSCVASGFTFRSYWMHWVRQDPGEGLVWVSRVSGDGSSTNYADSVKGRFVISRDNAKDTLYLQMYSLRGEDTAVYYCLRGNDGYGNFDYWGQGTTVTVSS VL: DVVMTQSPLSLPVTLGQPASISCRPSQSLVYSDGNTYLNWFQQRPGQSPRRLIYKVSNRDYVVPDRFSGSGSGTDFTLKISRVEAEDVGVYYCMQGTHWPLTFGGGTKVEIK
A. 2.86
